Tested on: PMA-stimulated human neutrophils
Assay: H2O2 generation by PMA-stimulated neutrophils, oxidation of Amplex Red
Type: cell-based
Details: Homo sapiens, Neutrophil; PMA 160 nM; mean ± SEM
Experimental endpoint: pIC50
// pIC50: -log10(molar conc.)

O=c1c(O)c(-c2ccc(O)c(O)c2)oc2cc(O)cc(O)c12 [Quercetin, quercetin, reference compound]    5.39

// below: pIC50 requested for another molecule
Give pIC50 for c1ccc2c(c1)[I+]c1ccccc1-2 [DPI, diphenyleneiodonium chloride, reference compound] 7.22

* * *

Experiment: Neutrophils' apoptosis versus necrosis, Annexin V/PI flow cytometry
Format: cell-based, human
Conditions: human; 50 μM; representative plot, Figure 2; read-out: Q2-LL, viable cells (AV−/PI−)
Protocol: The effect of the compounds under study on neutrophil viability was evaluated using flow cytometry. […] In the flow cytometer, the fluorescence signal of at least 10,000 neutrophils per sample was collected in logarithmic mode and followed in channels 1 and 3. […] The green fluorescence corresponding to Annexin V was monitored in channel 1 and plotted as a histogram of FL1 staining, whereas the fluorescence corresponding to PI was monitored in channel 3 and plotted in the same histogram as FL3 staining. […]
Experimental endpoint: viability at 45 min, 50 µM
Express your answer as a number followed by its unit.

Provide measured viability at 45 min, 50 µM value, entry: CCCCCCCCCCCC(=O)OCC(CO)OC1OC(COP(=O)(OCCN)OCCN)C(O)C(O)C1O (stereo not shown) 53%
